Returns Criterion met if the recorded logP is greater than or equal to 2, and Criterion not met otherwise.

1) Cc1nc(N)sc1C(=O)CCN(C)C    Criterion not met
2) CCc1cccc(CC)c1OC(C)=O    Criterion met
3) COC(=O)c1c(Cl)cccc1Cl    Criterion met
4) COC(=O)c1c(C)cccc1C    Criterion met
5) COC(=O)c1ccc([N+](=O)[O-])cc1    Criterion not met
6) CC(=O)Oc1c(C)cccc1C    Criterion met
7) COC(=O)c1ccc(F)cc1    Criterion met
8) O=C(O)c1c(F)cccc1F    Criterion not met
9) COC(=O)c1c(Cl)cccc1[N+](=O)[O-]    Criterion met
10) CC(=O)Oc1c(Cl)cccc1Cl    Criterion met
11) O=C(O)c1c(Cl)cccc1[N+](=O)[O-]    Criterion not met
12) COC(=O)c1ccc(C)cc1    Criterion met
13) COC(=O)c1ccccc1F    Criterion not met
14) COC(=O)c1ccccc1[N+](=O)[O-]    Criterion not met
15) CCc1cccc(CC)c1O    Criterion met

* * *

experimentalReadout: logP

1) COC(=O)c1ccccc1OC    2.04
2) COC(=O)c1c(F)cccc1F    1.96
3) Oc1c(F)cccc1F    1.96

Source: the OPERA property sets (Mansouri et al. 2018)
